conditions: 10 min, 10 μM
quantity: Prodrug (%) remaining, Human Plasma

>  <molecule>
CCCC(C)C(=O)OC1=C[C@@H]2N(C)CC[C@]2(c2ccc(OC)c(OC)c2)CC1 (stereo partly shown) [Compound 402]

>  <quantity>
Prodrug (%) remaining, Human Plasma

>  <comparator>
=

>  <observed result>
11.3

$$$$
>  <molecule>
COc1ccc([C@@]23CCC(OC(=O)c4cccc(C)c4)=C[C@@H]2N(C)CC3)cc1OC [Compound 374]

>  <quantity>
Prodrug (%) remaining, Human Plasma

>  <comparator>
>

>  <observed result>
99

$$$$
>  <molecule>
COc1ccc([C@@]23CCC(OC(=O)CC(C)(C)C)=C[C@@H]2N(C)CC3)cc1OC [Compound 431]

>  <quantity>
Prodrug (%) remaining, Human Plasma

>  <comparator>
=

>  <observed result>
82.1

$$$$
>  <molecule>
CCCC(C)(C)C(=O)OC1=C[C@@H]2N(C)CC[C@]2(c2ccc(OC)c(OC)c2)CC1 [Compound 429]

>  <quantity>
Prodrug (%) remaining, Human Plasma

>  <comparator>
>

>  <observed result>
99

$$$$
>  <molecule>
COc1ccc([C@@]23CCC(OC(=O)CCN)=C[C@@H]2N(C)CC3)cc1OC [Compound 397]

>  <quantity>
Prodrug (%) remaining, Human Plasma

>  <comparator>
=

>  <observed result>
2.2

$$$$
>  <molecule>
CCCCCCCC(=O)OC1=C[C@@H]2N(C)CC[C@]2(c2ccc(OC)c(OC)c2)CC1 [Compound 395]

>  <quantity>
Prodrug (%) remaining, Human Plasma

>  <comparator>
=

>  <observed result>
13.9

$$$$
>  <molecule>
CCC(C)(C)C(=O)OC1=C[C@@H]2N(C)CC[C@]2(c2ccc(OC)c(OC)c2)CC1 [Compound 428]

>  <quantity>
Prodrug (%) remaining, Human Plasma

>  <comparator>
=

>  <observed result>
82.9

$$$$
>  <molecule>
CCCCCC(C)C(=O)OC1=C[C@@H]2N(C)CC[C@]2(c2ccc(OC)c(OC)c2)CC1 (stereo partly shown) [Compound 400]

>  <quantity>
Prodrug (%) remaining, Human Plasma

>  <comparator>
=

>  <observed result>
34.7

$$$$
>  <molecule>
COCCOCCC(=O)OC1=C[C@@H]2N(C)CC[C@]2(c2ccc(OC)c(OC)c2)CC1 [Compound 405]

>  <quantity>
Prodrug (%) remaining, Human Plasma

>  <comparator>
>

>  <observed result>
99

$$$$
>  <molecule>
COc1ccc([C@@]23CCC(OC(=O)c4ccc(C(C)C)cc4)=C[C@@H]2N(C)CC3)cc1OC [Compound 371]

>  <quantity>
Prodrug (%) remaining, Human Plasma

>  <comparator>
>

>  <observed result>
99

$$$$
>  <molecule>
CCCCC(CC)C(=O)OC1=C[C@@H]2N(C)CC[C@]2(c2ccc(OC)c(OC)c2)CC1 (stereo partly shown) [Compound 401]

>  <quantity>
Prodrug (%) remaining, Human Plasma

>  <comparator>
=

>  <observed result>
95.9

$$$$
>  <molecule>
CCCC(CCC)C(=O)OC1=C[C@@H]2N(C)CC[C@]2(c2ccc(OC)c(OC)c2)CC1 [Compound 427]

>  <quantity>
Prodrug (%) remaining, Human Plasma

>  <comparator>
>

>  <observed result>
99

$$$$
>  <molecule>
CCC(C)(CC)C(=O)OC1=C[C@@H]2N(C)CC[C@]2(c2ccc(OC)c(OC)c2)CC1 [Compound 430]

>  <quantity>
Prodrug (%) remaining, Human Plasma

>  <comparator>
>

>  <observed result>
99

$$$$
>  <molecule>
CCCC(CC)CC(=O)OC1=C[C@@H]2N(C)CC[C@]2(c2ccc(OC)c(OC)c2)CC1 (stereo partly shown) [Compound 398]

>  <quantity>
Prodrug (%) remaining, Human Plasma

>  <comparator>
=

>  <observed result>
96.4

$$$$
>  <molecule>
COc1ccc([C@@]23CCC(OC(=O)c4cccc(C)c4C)=C[C@@H]2N(C)CC3)cc1OC [Compound 373]

>  <quantity>
Prodrug (%) remaining, Human Plasma

>  <comparator>
=

>  <observed result>
96.3

$$$$
>  <molecule>
CCC(CC)C(=O)OC1=C[C@@H]2N(C)CC[C@]2(c2ccc(OC)c(OC)c2)CC1 [Compound 426]

>  <quantity>
Prodrug (%) remaining, Human Plasma

>  <comparator>
=

>  <observed result>
87.1

$$$$
